# procedure-summary: Clearance in monkey at 1 mg/kg, iv
# Type: ADME, organism-based, Macaca mulatta
# Parameters: dose 1 mg/kg, route intravenous
# applied-conditions: rhesus monkey, in vivo
property-label: clearance

INSERT INTO measurements (compound_structure, observed_measurement) VALUES
  ('COc1ccc2c(c1)C(=O)N(C[C@@]1(C#Cc3cccnc3)NC(=O)NC1=O)C2', '217 mL/min/kg');

---

# procedure-summary: Half life in dog at 0.5 mg/kg, iv
# Assay type: ADME, organism-based, Canis lupus familiaris
# Design: dose 0.5 mg/kg, route intravenous
# applied-conditions: in vivo
property-label: half-life (min)

INSERT INTO measurements (compound_structure, property_label, observed_measurement) VALUES
  ('COc1ccc2c(c1)C(=O)N(C[C@@]1(C#Cc3cccnc3)NC(=O)NC1=O)C2', 'half-life', 54);

Reference for the values: ChEMBL document CHEMBL1287807
